Here is a set of molecules with reported IC50 for Human Factor XIIa (Homo sapiens, UniProt P00748), compiled from the literature.

In the examples that follow, each entry is paired with its recorded IC50.
# value lookup — system Human Factor XIIa (Homo sapiens, UniProt P00748), readout IC50, item Cn1ccc(OCC23CC(CNc4cccc5c(N)nccc45)(CN2C(=O)OCc2ccccc2Cl)C3)cc1=O
10 to 100 nM

Record Nc1nccc2cc(NCc3ccc(OC[C@H]4CCn5ccnc5C4)nc3)ccc12 (single isomer, unassigned) : what is its IC50 with Human Factor XIIa (Homo sapiens, UniProt P00748)?
100 to 300 nM

Form field - read-out: IC50; system: Human Factor XIIa (Homo sapiens, UniProt P00748); submitted item: Nc1nccc2c(NCc3ccc(N4CCn5ccnc5C4)nc3)cccc12
300 to 1000 nM

With those in mind, consider the next molecule.
Query IC50 on Human Factor XIIa (Homo sapiens, UniProt P00748) for O=C(NCC1CC1)c1nn(-c2cccc(Cl)c2)c2c1CCN(c1ccc3c(c1)CNCC3)C2=O
1000 to 3000 nM
